TEST SUMMARY: Solubility of AMG 706 anhydrous diphosphate salt in water over time
Assay type: physicochemical
CONDITION INFO: thermodynamic from solid, time 1.0 hr, RT, pH 2.7
Description: AMG 706 anhydrous diphosphate (˜100 mg) salt was added to 2 mL of water and placed on a rotator stirrer. Multiple runs were performed each at different temperatures between about room temperature to about 40° C. Solid was isolated at various time points by vacuum filtering the supernatant and the material was air-dried overnight.
MEASURED METRIC: solubility at 1 hr

In [3]: df
Out[3]:
                                   compound     measured_metric  experimental_value
0  CC1(C)CNc2cc(NC(=O)c3cccnc3NCc3ccncc3)ccc21 [AMG 706 anhydrous diphosphate]  solubility at 1 hr            21 mg/mL

###

TEST SUMMARY: Solubility of AMG 706 anhydrous diphosphate salt in water over time
Type: physicochemical
CONDITION INFO: thermodynamic from solid, time 3.0 hr, RT, pH 2.7
MEASURED METRIC: solubility at 3 hr

>>> print(df.to_string())
                                   compound  experimental_value
0  CC1(C)CNc2cc(NC(=O)c3cccnc3NCc3ccncc3)ccc21 [AMG 706 anhydrous diphosphate]            21 mg/mL

###

TEST SUMMARY: Solubility of AMG 706 anhydrous diphosphate salt in water over time
Format: physicochemical
CONDITION INFO: thermodynamic from solid, time 0.5 hr, RT, pH 2.6
MEASURED METRIC: solubility at 0.5 hr (mg/mL)

>>> print(df.to_string())
                                   compound  unit_descriptor  experimental_value
0  CC1(C)CNc2cc(NC(=O)c3cccnc3NCc3ccncc3)ccc21 [AMG 706 anhydrous diphosphate]            mg/mL                  22

###

TEST SUMMARY: Solubility of AMG 706 anhydrous diphosphate salt in water over time
Type: physicochemical
CONDITION INFO: thermodynamic from solid, time 24.0 hr, 40 C, pH 3.0
MEASURED METRIC: solubility at 24 hr

>>> df
                                   compound  experimental_value
0  CC1(C)CNc2cc(NC(=O)c3cccnc3NCc3ccncc3)ccc21 [AMG 706 anhydrous diphosphate]            26 mg/mL

###

TEST SUMMARY: Solubility of AMG 706 anhydrous diphosphate salt in water over time
Assay type: physicochemical
CONDITION INFO: thermodynamic from solid, time 6.0 hr, 40 C, pH 2.6
MEASURED METRIC: solubility at 6 hr (mg/mL)

In [3]: df
Out[3]:
                                   compound  experimental_value
0  CC1(C)CNc2cc(NC(=O)c3cccnc3NCc3ccncc3)ccc21 [AMG 706 anhydrous diphosphate]                  20
